- targetOfAssay: T1, AFP158/HLA-A*02:01 complex (human)
- T1 construct: biotinylated on the BSP by BirA for ELISA and panning; also called biotinylated AFP158/HLA-A*02:01 complex; Bio-AFP158
- assayOverview: SPR, antibody captured via mIgG2a-Fc, complex as analyte
resultType: Kd (nM)

binder	assayValue
AS170036 scFv-mIgG2aFc (Fc fusion, not shown: a dimerising Fc or GST, Camel scFv) QLVLTQPSSVSGTPGQTVTISCAGTSSDVGSENYVSWYRQLPGTAPKLLIYQVNKRASGIADRFSGSKSGNTASMTISGLQSADEADYYCASYRSSDHNIVFGGGTHLTVLGGGGSGGGGSGGGGSAVQLVESGGGLVQPGGSLRLSCTASGFTFSSYAMSWVRQAPGKGLEWVSTINSGTGSPYYADSVKGRFTISRDNAKNTLYLQLNSLKTEDTAMYYCAKNFFDGSWFLGPPAMDYWGKGTLVTISS	250
AS167821 sdAb-mIgG2aFc (Fc fusion, not shown: a dimerising Fc or GST, i647-labelled for flow cytometry) QVRLVESGGGSVQAGGSLRLSCAASGRTYSTYCMGWFRQAPGKEREGVATIYIGSGRTYYVDSVKGRFTISQDNAKNTLYLQMNNLKPEDTAMYYCTADVDPYESSWSRGLGYWGQGTQVTVSS	95
AS179732 scFv-mIgG2aFc (Fc fusion, not shown: a dimerising Fc or GST, Camel scFv; i647-labelled for flow cytometry) NFMLTQPPSMSGSPRQSVTISCTGSSSNIGGNYVNWYQHLPGTAPKLLIYDNSNRASGVPERFSGSKSGSSASLTITGLQAEDEGDYYCASWDDSLSGAVFGGGTHLTVLGGGGSGGGGSGGGGSEVQLVESGGGLVQPGGSLRLSCAASGFTFLNYAMSWVRQAPGKGLEWVSSNSGAGSTYYSDSVKGRFTISRDYAKNVVYLQLNSLKTEDTGMYYCAKGTNVGSWSSLHYWGQGTQVTVSS	67
AS167830 sdAb-mIgG2aFc (Fc fusion, not shown: a dimerising Fc or GST, i647-labelled for flow cytometry) QVKLVESGGGSVQAGGSLRLSCAASRSSEYMNRRFCMGWFRQASGKEREGVAVVYIGGGRTYYADSVKGRFTISQDNAKNTLYLQMNNLKPEDTAMYYCTADVDPYESSWSRDLGYWGQGTQVTVSS	260
AS148691 scFv-mIgG2aFc (Fc fusion, not shown: a dimerising Fc or GST, i647-labelled for flow cytometry) DIQMTQSPSSLSASVGDRVTITCRASQSVSSAVAWYQQKPGKAPKLLIYSASSLYSGVPSRFSGSRSGTDFTLTISSLQPEDFATYYCQQYYGAYLITFGQGTKVEIKGGGGSGGGGSGGGGSEVQLVESGGGLVQPGGSLRLSCAASGFNLYYSSIHWVRQAPGKGLEWVASIYSSYGSTSYADSVKGRFTISADTSKNTAYLQMNSLRAEDTAVYYCARVGPGYYGIDYWGQGTLVTVSS	71
AS190259 scFv-mIgG2aFc (Fc fusion, not shown: a dimerising Fc or GST, Camel scFv; i647-labelled for flow cytometry) QSVVTQPSAVSVSLEETATITCQGGGYYVNWYQQKPGQAPVLVIYLNTNRPSGIPERFSASKSGGTATLTINGAQAEDEAAYYCQSADSSGNSAVFGGGTHLTVLGGGGSGGGGSGGGGSQVQLVQSGGGLVQPGGSLRLSCAASGFTFSSYAMSWVRQAPGKGLEWVSAINSGGGSTYYADSVKGRFTISRDNAKNTLYLQLNSLKTEDTAMYYCAKAASGYGGSWWGDATLDAWGQGTLVTVSS	390
AS179723 scFv-mIgG2aFc (Fc fusion, not shown: a dimerising Fc or GST, Camel scFv; i647-labelled for flow cytometry) QAGLTQPPSMSGSPRQSVTISCTGSSNNIGGNYVNWYQHLPGTAPKLLIYDNKNRPSGVPEQISGSKSGSSASLTITGLQAEDEGDYYCASWDDSLSAVVFGGGTHLTVLGGGGSGGGGSGGGGSEVQLVESGGGLVQPGGSLRLSCAASGFTFLNYAMSWVRQAPGKGLEWVSSNSGAGSTYYSDSVKGRFTISRDYAKNVVYLQLNSLKTEDTGMYYCAKGTNVGSWSSLHYWGQGTQVTVSS	39

Taken from patent US20240279318A1.
